target: human BACE1 (Homo sapiens, UniProt P56817); test: BACE1 fluorescent kinetic assay (cleavage of peptide substrate WABC-6); format: biochemical; settings: Examples 109-141; 10 nM enzyme, 25 μM substrate WABC-6, pH 4.5, room temperature
Sequence (P56817 46-501): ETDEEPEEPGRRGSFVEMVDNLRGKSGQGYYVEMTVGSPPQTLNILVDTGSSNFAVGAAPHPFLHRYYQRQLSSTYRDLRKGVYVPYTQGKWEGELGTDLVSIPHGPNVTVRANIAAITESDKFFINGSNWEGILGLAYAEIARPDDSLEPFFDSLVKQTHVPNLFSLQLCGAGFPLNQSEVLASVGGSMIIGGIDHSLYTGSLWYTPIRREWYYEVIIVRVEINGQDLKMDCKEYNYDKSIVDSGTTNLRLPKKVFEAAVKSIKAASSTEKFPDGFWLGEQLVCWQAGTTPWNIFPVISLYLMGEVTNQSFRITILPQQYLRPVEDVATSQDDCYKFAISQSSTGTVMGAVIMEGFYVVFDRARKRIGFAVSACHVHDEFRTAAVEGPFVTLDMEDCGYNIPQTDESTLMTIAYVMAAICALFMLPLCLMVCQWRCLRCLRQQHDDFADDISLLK
pIC50: −log10 of the molar value.
Catalogue of pIC50 values

Example results:
{"columns": ["compound", "tested-target", "pIC50"],
 "data": [
  ["Cc1cc2cc(C3(c4ccc(OC(F)F)cc4)N=C(N)N(C)C3=O)ccc2o1 (stereo not shown)", "human BACE1 (Homo sapiens, UniProt P56817)", "< 6.00"],
  ["CN1C(=O)C(c2ccc(OC(F)F)cc2)(c2cccc(NC(=O)c3ccc4c(c3)CCO4)c2)N=C1N (stereo not shown)", "human BACE1 (Homo sapiens, UniProt P56817)", "> 7.00"],
  ["CCOC/C=C(\\C)c1cccc(C2(c3ccc(OC(F)F)cc3)N=C(N)N(C)C2=O)c1 (stereo not shown)", "human BACE1 (Homo sapiens, UniProt P56817)", "6.00 to 6.96"]
]}

Let us move to another entry and its pIC50.
Form field: pIC50 recorded for CN1C(=O)C(c2ccc(OC(F)F)cc2)(c2cccc(N)c2)N=C1N (stereo not shown) with human BACE1 (Homo sapiens, UniProt P56817) (enter value)
< 6.00

Value source: patent US7723368B2
